# Test system: OVCAR-5 ovarian
# procedureSummary: NCI tumour cell line growth inhibition, 48 h
quantity: TGI

Request the reported TGI associated with C/C(=C\C(C)COCc1ccccc1)[C@H](COCc1ccccc1)OCc1ccccc1 (some centres undefined)
> 100 µM

Request the reported TGI associated with COc1cc(OC)cc(Oc2nc3ccccc3nc2C(=O)O)c1
> 100 µM

Request the reported TGI associated with Cc1[nH]c2ccccc2c1C1Cc2ccccc2N1C(=O)/C=C/C=C/c1ccccc1 (centres undefined)
> 100 µM

Request the reported TGI associated with COc1ccc(N(CC(=O)NCCC[Te]c2ccccc2)C(=O)c2ccccc2)cc1
11.4 µM

---

# System: RPMI-8226 leukemia
# procedureSummary: NCI tumour cell line growth inhibition, 48 h
quantity: TGI

Request the reported TGI associated with O=c1[nH]nc(Cc2ccccc2)n1/N=C/c1c(O)ccc2ccccc12
82.5 µM

Request the reported TGI associated with O=C(/C=C(\O)c1ccc(Cl)cc1)C(=O)N=Nc1c(O)[nH]c2ccc(Br)cc12
92.3 µM

Request the reported TGI associated with CCOC(=O)/C(O)=C(/c1n[nH]c(=O)c2ccccc12)[N+](=O)[O-]
> 100 µM

Request the reported TGI associated with COc1ccc(C[C@@H]2Cc3cc(OC)c(OC)cc3CN2C)cc1
> 100 µM

Request the reported TGI associated with CC1=C(C(=O)Nc2ccc(F)c(Cl)c2)C(c2ccccc2Cl)NC(=S)N1 (stereo unspecified)
> 50 µM

Request the reported TGI associated with O=S1(=O)OCCOS(=O)(=O)C1I
> 100 µM

---

Please respond with reported TGI for every item in the list.
# Tested on: MOLT-4 leukemia
# procedureSummary: NCI tumour cell line growth inhibition, 48 h

Request the reported TGI associated with COc1ccc(NC(=O)CC(=O)N2N=C(N3CCCCC3)CC2c2ccccc2)cc1 (stereo not given)
> 100 µM

Request the reported TGI associated with COc1ccc(N(CC(=O)NCCC[Te]c2ccccc2)C(=O)c2ccccc2)cc1
17.5 µM

Request the reported TGI associated with Cc1ccc(NC(=O)C(=O)C2C(=O)N(c3ccccc3)N=C2N)cc1C (stereo not given)
> 100 µM

Request the reported TGI associated with O=S1(=O)OCCOS(=O)(=O)C1I
> 100 µM

Request the reported TGI associated with COC(=O)C1=C(O)c2cc(OC)c(OC)c(OC)c2[C@H](c2cc(OC)c(OC)c(OC)c2)C1C(=O)OC (stereo not given in full)
68.3 µM

---

Please respond with reported TGI for every item in the list.
# System: SW-620 colon
# procedureSummary: NCI tumour cell line growth inhibition, 48 h

Write down the reported TGI of Nc1ccccc1CCCC(=O)O , test system: SW-620 colon.
> 100 µM

Write down the reported TGI of CC1=C(C(=O)Nc2ccc(F)c(Cl)c2)C(c2ccccc2Cl)NC(=S)N1 (stereo not given) , test system: SW-620 colon.
> 50 µM

Write down the reported TGI of COc1cccc(C2c3cc4c(cc3OC(C)(O)C2C)OCO4)c1O (stereo not given) , test system: SW-620 colon.
> 100 µM

Write down the reported TGI of O=S(=O)(O)O.[NH-]C1CCCCC1[NH-].[Pt+2] (stereo not given) , test system: SW-620 colon.
> 100 µM

Write down the reported TGI of COc1ccc2c(c1)c(=O)c1ccccc1n2/C=C/C(=O)O , test system: SW-620 colon.
> 100 µM

Write down the reported TGI of COc1ccc(N2C(=O)C3c4[nH]c5ccc(OC)cc5c4C4CCC(C(C)(C)C)CC4C3C2=O)cc1 (stereo not given) , test system: SW-620 colon.
> 100 µM

Write down the reported TGI of CS(=O)(=O)NNS(=O)(=O)c1cccc([N+](=O)[O-])c1 , test system: SW-620 colon.
> 100 µM

Write down the reported TGI of CCOC(=O)c1cc2c(ccc3cc(C(=O)OCC)[nH]c32)[nH]1 , test system: SW-620 colon.
> 100 µM

Write down the reported TGI of Cc1nc2c(n1CCO)C(=O)c1ccccc1C2=O , test system: SW-620 colon.
> 100 µM

Write down the reported TGI of O=S1(=O)OCCOS(=O)(=O)C1I , test system: SW-620 colon.
> 100 µM

Write down the reported TGI of CCOC(=O)Cc1nnc2c(-c3ccccc3)nc3ccccc3n12 , test system: SW-620 colon.
> 100 µM

Write down the reported TGI of Cc1ccc(NC(=O)CCC(CC(=O)C(C)(C)C)=NNC(=O)C(=O)NN)cc1C , test system: SW-620 colon.
> 100 µM

Write down the reported TGI of COc1cc(/C=C2/C(=O)N(C(=O)OC(C)C)C(Cc3cc(OC)c(OC)c(C)c3OC)C(=O)N2Cc2ccccc2)c(OC)c(C)c1OC (stereo not given) , test system: SW-620 colon.
> 100 µM

Write down the reported TGI of O=S(=O)(/C=C/c1ccc(Cl)cc1Cl)Cc1ccccc1CS(=O)(=O)/C=C/c1ccc(Cl)cc1Cl , test system: SW-620 colon.
> 100 µM

Write down the reported TGI of Oc1ccc(-c2nnc3sc(-c4ccc(F)c(Oc5ccccc5)c4)nn23)cc1 , test system: SW-620 colon.
> 100 µM

Write down the reported TGI of COCc1nc2c(OC)cc(-c3nc4nc(N5CCN(C)CC5)ccc4[nH]3)c(OC)c2[nH]1 , test system: SW-620 colon.
> 100 µM

Write down the reported TGI of CC(=O)N1N=C2/C(=C/c3ccccc3)CC(C)CC2C1c1ccccc1 (stereo not given) , test system: SW-620 colon.
33.2 µM

Write down the reported TGI of COc1ccc(N(CC(=O)NCCC[Te]c2ccccc2)C(=O)c2ccccc2)cc1 , test system: SW-620 colon.
14.4 µM

Write down the reported TGI of COc1ccc(C(=O)C(c2ccc(OC)cc2)C2(O)C(=O)Nc3ccccc32)cc1 (stereo not given) , test system: SW-620 colon.
> 100 µM

Write down the reported TGI of COC(=O)/C=C1/CCC2[C@@H](C(=O)CC3[C@]2(C)CCC[C@@]3(C)C(=O)OC)C1C (stereo not given in full) , test system: SW-620 colon.
22.5 µM

Write down the reported TGI of CCOC(=O)c1ccc(Nc2nc3cc(C(F)(F)F)ccc3nc2-c2ccccc2)cc1 , test system: SW-620 colon.
> 100 µM

Write down the reported TGI of O=c1[nH]nc(Cc2ccccc2)n1/N=C/c1c(O)ccc2ccccc12 , test system: SW-620 colon.
> 100 µM

Write down the reported TGI of C=C1C(=O)O[C@@H]2[C@H]1C[C@@H](O)[C@H](C)[C@@](O)(C(=O)/C=C/C)[C@H]2OC(=O)C(C)CC (stereo not given in full) , test system: SW-620 colon.
6.65 µM

Write down the reported TGI of COc1cc(C(=O)c2ccc3c(c2)OCO3)cc(OC)c1OC , test system: SW-620 colon.
> 100 µM

Write down the reported TGI of COc1cc2cc(C(=O)N3CC(CCl)c4c3cc([N+](=O)[O-])c3ccccc43)[nH]c2c(OC)c1OC (stereo not given) , test system: SW-620 colon.
> 100 µM

---

# Test system: SK-OV-3 ovarian
# procedureSummary: NCI tumour cell line growth inhibition, 48 h
Please respond with reported TGI for every item in the list.

Write down the reported TGI of CC(=O)N1c2ccccc2C23CCN(C)CC4C(C)OCC(C4CC2=O)C13 (stereo not drawn) , test system: SK-OV-3 ovarian.
> 100 µM

Write down the reported TGI of CCOc1ccc(N=NC2C(=O)N(C(=O)CC(=O)Nc3ccccc3OC)N=C2C)cc1 (stereo not drawn) , test system: SK-OV-3 ovarian.
> 87.4 µM

Write down the reported TGI of C#CCOC(=O)c1ccccc1O , test system: SK-OV-3 ovarian.
> 100 µM

---

# Tested on: ACHN renal
# procedureSummary: NCI tumour cell line growth inhibition, 48 h
Please respond with reported TGI for every item in the list.

Write down the reported TGI of O=c1[nH]nc(Cc2ccccc2)n1/N=C/c1c(O)ccc2ccccc12 , test system: ACHN renal.
84.5 µM

Write down the reported TGI of C=C(C)C1CC=C(C)[C@](O)(C2(O)C[C@H](C(=C)C)CC=C2C)C1 (stereo partly drawn) , test system: ACHN renal.
> 100 µM

Write down the reported TGI of Oc1ccc2cc(Br)ccc2c1-c1c(O)ccc2cc(Br)ccc12 , test system: ACHN renal.
11.3 µM

Write down the reported TGI of O=c1[nH]c(Nc2ccc(F)c(Cl)c2)nc2nc[nH]c12 , test system: ACHN renal.
> 100 µM

Write down the reported TGI of CC1=NN(c2nc(N)nc(CCl)n2)CC1 , test system: ACHN renal.
38.5 µM

Write down the reported TGI of CC(=O)C1C(=O)C(=O)N(c2cccc(C)c2C)C1=O (stereo not drawn) , test system: ACHN renal.
> 100 µM

Write down the reported TGI of COc1ccc(N2C(=O)C3c4[nH]c5ccccc5c4C4CCCCCCCCCCC4C3C2=O)cc1 (stereo not drawn) , test system: ACHN renal.
> 60.3 µM

Write down the reported TGI of CCOC(=O)c1cc2c(ccc3cc(C(=O)OCC)[nH]c32)[nH]1 , test system: ACHN renal.
> 100 µM

Write down the reported TGI of O=C(O)C(CP(=O)(O)O)=C(Cl)Cl , test system: ACHN renal.
> 100 µM

Write down the reported TGI of COc1cccc(-c2cc(=O)c3cc(OC)c(OC)cc3[nH]2)c1 , test system: ACHN renal.
> 100 µM

Write down the reported TGI of Cc1ccccc1C1CC(=O)CC(c2ccccc2C)C12C(=O)NC(=O)NC2=O (stereo not drawn) , test system: ACHN renal.
> 100 µM

Write down the reported TGI of CC[C@H](C)[C@H]1NC(=O)[C@@H](N[C@](C)(O)[C@@H](N)CC(C)C)[C@@H](C)OC(=O)[C@H](Cc2ccc(OC)cc2)N(C)C(=O)[C@@H]2CCCN2C(=O)[C@H](CC(C)C)NC(=O)[C@@H](C)C(=O)[C@H](C(C)C)OC(=O)C[C@@H]1O , test system: ACHN renal.
2.67 µM

Write down the reported TGI of COc1ccc(N2C(=O)C3c4[nH]c5ccc(OC)cc5c4C4CCC(C(C)(C)C)CC4C3C2=O)cc1 (stereo not drawn) , test system: ACHN renal.
> 100 µM
